Catalogue of GI50 values
# System: HCC 2998
# PROCEDURE_DETAILS: NCI tumour cell line growth inhibition, 48 h
Calls of active or inactive are those of the source. Rule as the data show it: active = GI50 up to about 1.1 µM and inactive = higher. *1 amine or outer side, *2 acyl side, *3 side chain or, on linkers, in order; H or OH if unused. Where a SMILES comes first, the peptide text is derived from it. [ ]: non-standard residue; d: D form. The star is where a group is joined. ξ: configuration not given here. X26 = O=C([C@H]1CCC[C@H]1N[*:1])[*:2]; ξW = NC(Cc1c[nH]c2ccccc12)C(=O)O; ξF = NC(Cc1ccccc1)C(=O)O; Boc = CC(C)(C)OC(=O)*; ξK = NCCCCC(N)C(=O)O; ξT = CC(O)C(N)C(=O)O; tBu = CC(C)(C)*
MEASURED_METRIC: GI50

COMPOUND	MEASURED
CC(=O)C(=C(I)I)c1ccccc1	24.5 µM (inactive)
CCC[N+](C)(C)CCCNC(=O)c1c(O)c2ccccc2[nH]c1=O	> 100 µM (inactive)
COC1OC(C)C(OC(=O)C(C)(C)C)C(OS(=O)(=O)c2ccc(C)cc2)C1OS(=O)(=O)c1ccc(C)cc1 (stereo not given)	> 100 µM (inactive)
CC1OC(CC(=O)O)Cc2c(O)c3c(c(O)c21)C(=O)C=C(C1=CC(=O)c2c(O)c4c(c(O)c2C1=O)CC(CC(=O)O)OC4C)C3=O (stereo not given)	46.3 µM (inactive)
O=C(c1ccccc1)c1c(-c2ccccc2)n(-c2ccccc2)[nH]c(=O)c1=O	> 100 µM (inactive)
Cn1c(SCc2c[nH]c3ccccc23)nnc1-c1ccc(Cl)cc1Cl	12 µM (inactive)
CC(Oc1ccccc1)C(=O)NNC(=O)OC(C)(C)C (stereo not given)	> 100 µM (inactive)
ON[C@H]1C[C@@H](n2cnc3c(NC4CC4)ncnc32)[C@H](O)[C@@H]1O	> 100 µM (inactive)
Cc1nn(C(=O)Cc2ccccc2)c2c1C(c1ccc3ccccc3c1O)SC(=N)N2 (stereo not given)	> 100 µM (inactive)
COC(OC)(c1ccccc1)C(Br)Br	> 100 µM (inactive)
CC(OC(C)(C)C)C1NC(=O)C(CCCCNC(=O)OC(C)(C)C)NC(=O)C(Cc2c[nH]c3ccccc23)NC(=O)C(Cc2ccccc2)NC(=O)[C@H]2CCC[C@H]2NC(=O)C(Cc2ccccc2)NC1=O (stereo not given in full) (cyclo([X26][ξF][ξW][ξK](Boc)[ξT](tBu)[ξF]))	12.2 µM (inactive)
CNC(=O)/C=C/C1=CN2C(=O)c3ccc(C)c(O)c3NC(OC)C2C1 (stereo not given)	< 0.0126 µM (active)
O=S1(=O)OCCCOS(=O)(=O)C1Br	> 100 µM (inactive)
Cc1cc(O)cc(O)c1/N=N/c1ccc([N+](=O)[O-])cc1	10.4 µM (inactive)
Cn1c2ccccc2n2c(=O)c3cc([N+](=O)[O-])ccc3c(C#N)c12	> 100 µM (inactive)

###

# System: U-251
# PROCEDURE_DETAILS: NCI tumour cell line growth inhibition, 48 h
The source made the active and inactive calls. Rule as the data show it: active = GI50 up to about 1.1 µM and inactive = higher. Residues, ends and D or L forms follow the SMILES beside them. *: point of attachment. Boc = CC(C)(C)OC(=O)*; Bz = O=C(c1ccccc1)*
Catalogue of GI50 values

COMPOUND	GI50
COc1cc2c(cc1C1COc3cc4occc4cc3C1=O)OCO2 (stereo not given)	76 µM (inactive)
O=c1ccc2ccccc2c2ccccc12	2.34 µM (inactive)
S=C(N1CCN(c2ccccc2)CC1)N1CCN(c2ccccc2)CC1	> 100 µM (inactive)
NCCN/C(=N\c1ccccc1)Nc1ccccc1	> 100 µM (inactive)
CCOC(=O)N/N=C(\Cc1ccccc1)OCC	> 100 µM (inactive)
O=C(Nc1ccn(CCOC(=O)c2ccccc2)c(=O)n1)c1ccccc1	> 100 µM (inactive)
CN(C)c1ccc(C=c2c3ccccc3n3c2c2ccccc2[n+]3C)cc1	0.196 µM (active)
CC(=O)OC1COC(N2C(=O)C(=O)c3c(C)cc(Cl)nc32)C(OC(C)=O)C1OC(C)=O (stereo not given)	> 100 µM (inactive)
CC(NC(=O)C(Cc1ccc(OC(=O)c2ccccc2)cc1)NC(=O)OC(C)(C)C)C(=O)NC(Cc1ccccc1)C(=O)NCC(N)=O (stereo not given) (Boc-Y(Bz)AFG-NH2; configuration not given here)	17.8 µM (inactive)
C=C(O)c1ccccc1C#Cc1ccccc1C(=O)OC	> 10 µM (inactive)
CCCCCC(=O)N[C@@H](c1ccccc1)C(O)C(=O)OC1C[C@@]2(O)C(OC(=O)c3ccccc3)C3[C@](C)(C(=O)[C@H](O)C(=C1C)C2(C)C)C(OC1OCC(O)C(O)C1O)C[C@H]1OC[C@@]31OC(C)=O (stereo not given in full)	1.64 µM (inactive)
OCC1OC(NCCNCCNC2OC(CO)C(O)C(O)C2O)C(O)C(O)C1O (stereo not given)	> 100 µM (inactive)
O=P(O)(Cc1ccccc1)c1ccccc1-c1ccccc1	57.1 µM (inactive)
O=CN/C=C/c1ccccc1O	> 100 µM (inactive)
Cc1ccc(-c2c(C#N)c(O)n(NS(=O)(=O)c3ccccc3)c(=O)c2C#N)cc1	> 100 µM (inactive)
COC[C@@H]1[C@H]2OC(C)(C)O[C@H]2C(=O)N1C(=O)c1ccc(OC)cc1	> 100 µM (inactive)
Cc1ccc(S(=O)(=O)N(CCN)c2cc3c4c(c2)Oc2cccc5c2C4c2c(cccc2O3)O5)cc1	19.6 µM (inactive)
CCOC(=O)O/C(=C\c1ccc(OC)cc1)c1c(OC(=O)OCC)n(C(=O)OCC)c2ccccc12	24.7 µM (inactive)
CCCCNC(=NC#N)NCCCC	99.5 µM (inactive)
COC(=O)/C(C)=C/[N+](=O)[O-]	18.5 µM (inactive)

###

# Test system: U-251
# PROCEDURE_DETAILS: NCI tumour cell line growth inhibition, 48 h
Active and inactive are the calls of the source. No stated cut-off is given here; in the data, active = GI50 up to about 1.1 µM and inactive = higher.
MEASURED_METRIC: GI50

> print(dat)
                                    compound  target.system  measured.metric              measured
 1  O=S(=O)(c1ccccc1)C1CN2OC1(S(=O)(=O)c1ccccc1)CC2c1ccc(Br)cc1 (stereo not drawn)          U-251             GI50    54.2 µM (inactive)
 2  CC(C)c1c(O)ccc2c1CCC1C(C)(C)CCCC21C (stereo not drawn)          U-251             GI50      18 µM (inactive)
 3  Cn1c(=O)c2c(nc3n2C(CCl)CO3)n(C)c1=O (stereo not drawn)          U-251             GI50   > 100 µM (inactive)
 4  COc1ccccc1NS(=O)(=O)c1cc(C(C)(C)C)ccc1OCCOc1ccc(C(C)(C)C)cc1S(=O)(=O)Nc1ccccc1OC          U-251             GI50   > 100 µM (inactive)
 5  O=C1N=C(c2ccccc2)OC1C(=O)c1ccccc1 (stereo not drawn)          U-251             GI50   > 100 µM (inactive)
 6                    COc1ccc2c(c1OC)C(=O)C2          U-251             GI50   > 100 µM (inactive)
 7  NS(=O)(=O)c1cc(Br)c(/N=N\c2ccc(O)c3ncccc23)c(Br)c1          U-251             GI50    19.1 µM (inactive)
 8  C1CN(c2nc3c(nnc4nc(N5CCOCC5)sc43)s2)CCO1          U-251             GI50    60.8 µM (inactive)
 9  COC(=O)c1ccccc1CC1Cc2ccc3c(c2C1=O)CCC3 (stereo not drawn)          U-251             GI50    51.1 µM (inactive)
10  COc1ccc2c(c1)C(=O)CC1c3cnccc3C(=O)N21 (stereo not drawn)          U-251             GI50  > 73.5 µM (inactive)
11             CN(CC(=O)O)Cc1oc(CO)cc(=O)c1O          U-251             GI50   > 100 µM (inactive)
12  CCOC(=O)[C@@]12C(C)=CC(=O)O[C@]1(C)C[C@H]2C#N          U-251             GI50   > 100 µM (inactive)
13  C[O+]=C1C=CC(=C2SC(c3ccccc3)(c3ccccc3)c3ccccc32)C=C1.[O-][Cl+3]([O-])([O-])[O-]          U-251             GI50    22.6 µM (inactive)
14  COc1ccc(/C=C/c2cc(OC)c(O[Si](C)(C)C(C)(C)C)c(OC)c2)cc1          U-251             GI50    98.6 µM (inactive)
15  COC(=O)C1=NN2c3ccccc3CN([C@@H](C)c3ccccc3)C(=O)[C@H]2[C@@H]1C          U-251             GI50      42 µM (inactive)
16  O=c1[nH]c(=O)n(C2CC(O)C(CO)O2)cc1C#Cc1ccc(C(F)(F)F)cc1 (stereo not drawn)          U-251             GI50   > 100 µM (inactive)
17  O=[N+]([O-])c1ccc(C2CC(c3ccc(NCc4nc5ccccc5[nH]4)cc3)=NO2)cc1 (stereo not drawn)          U-251             GI50    36.4 µM (inactive)
18     CC(=O)Oc1cc(OC(C)=O)c2c(C)cc(=O)oc2c1          U-251             GI50   > 100 µM (inactive)
19  CN1CCCC2[C@@H]3CCC4c5nonc5CC[C@]4(C)C3CC[C@@]21C (stereo partly drawn)          U-251             GI50   > 100 µM (inactive)
20        NC1N=Nc2ccccc21 (stereo not drawn)          U-251             GI50   > 100 µM (inactive)
21    CC1(C)CC(=O)C(=CNC(=O)c2ccncc2)C(=O)C1          U-251             GI50   > 100 µM (inactive)
22  C/C(CC(=O)Nc1cc(Cl)c(Cl)cc1Cl)=N\NC(N)=O          U-251             GI50   > 100 µM (inactive)
23  C[C@@H]1CCC([C@@H](C)[C@H]2CC[C@H]3[C@@H]4CC[C@H]5C[C@@H](O)CC[C@]5(C)[C@H]4CC[C@]23C)=NC1          U-251             GI50    8.63 µM (inactive)

Values from ChEMBL document CHEMBL1201862
